The values you see were collected from ChEMBL document CHEMBL1817560.

Tested target: 3-phosphoinositide-dependent protein kinase 1 (Homo sapiens)
Assay comment: Inhibition of PDK1 expressed in Escherichia coli or baculovirus-infected insect cells using gamma-[33P]ATP at 400 uM by scintillation proximity assay
Endpoint: inhibition (%)

Answered examples (4):
c1ccc(Nc2ccccc2)cc1	9
Cc1ccc(C(=O)NC2CC2)cc1F	11
Nc1ncccc1OCc1ccccc1	35
c1cnc2[nH]ccc2c1	25

[a] c1ccc(Nc2ncccn2)cc1
[b] O=C(Nc1ccccc1)Nc1cccc(C(F)(F)F)c1
[c] c1ccc(-c2cnc3nccnn23)cc1
Q: Could you please sort these 3 entries by inhibition from high to low? Form entry: ranked labels (order as requested).
Ans: a, b, c

---

Tested target: Glycogen synthase kinase-3 beta (Homo sapiens) (UniProt P49841)
Sequence (P49841 whole entry, looked up): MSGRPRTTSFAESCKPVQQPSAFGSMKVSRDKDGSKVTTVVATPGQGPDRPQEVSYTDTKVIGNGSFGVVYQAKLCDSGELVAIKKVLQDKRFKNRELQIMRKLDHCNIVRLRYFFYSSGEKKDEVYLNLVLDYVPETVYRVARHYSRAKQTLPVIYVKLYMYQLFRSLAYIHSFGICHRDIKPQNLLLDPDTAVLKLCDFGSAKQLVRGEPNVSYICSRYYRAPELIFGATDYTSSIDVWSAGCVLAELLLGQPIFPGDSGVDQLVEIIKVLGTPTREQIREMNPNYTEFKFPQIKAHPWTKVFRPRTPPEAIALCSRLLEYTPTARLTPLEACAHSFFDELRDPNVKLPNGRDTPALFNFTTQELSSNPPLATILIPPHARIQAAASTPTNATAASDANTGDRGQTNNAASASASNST
Assay comment: Inhibition of GSK3-beta expressed in Escherichia coli or baculovirus-infected insect cells using ATP as substrate at 667 uM by fluorescence polarization assay
Endpoint: inhibition (%)

O=C(Nc1ccccc1)Nc1ccccc1	11
Nc1[nH]nc2ccccc12	34

[A] Cc1ccc(NC(=O)Nc2cc(C(C)(C)C)nn2-c2ccccc2)cc1
[B] c1ccc(Nc2ccccc2)cc1
[C] O=C(Nc1ccccc1)Nc1cccc(C(F)(F)F)c1
Q: Output the entries ranked by inhibition from maximum down to minimum. Put the labels in the requested order and list them out.
Ans: A, C, B

---

Tested target: Aurora kinase A (Homo sapiens) (UniProt O14965)
Sequence (O14965 whole entry): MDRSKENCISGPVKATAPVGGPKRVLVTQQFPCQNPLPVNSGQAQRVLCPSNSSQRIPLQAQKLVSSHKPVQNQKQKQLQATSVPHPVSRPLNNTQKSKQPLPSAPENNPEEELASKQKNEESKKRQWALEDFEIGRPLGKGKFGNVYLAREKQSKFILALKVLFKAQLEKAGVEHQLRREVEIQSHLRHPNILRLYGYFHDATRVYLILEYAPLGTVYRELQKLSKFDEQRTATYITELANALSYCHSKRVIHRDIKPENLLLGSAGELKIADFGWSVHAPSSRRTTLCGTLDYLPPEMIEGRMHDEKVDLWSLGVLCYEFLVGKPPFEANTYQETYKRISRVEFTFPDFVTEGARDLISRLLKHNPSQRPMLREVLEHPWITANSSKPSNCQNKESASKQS
Assay comment: Inhibition of AurA expressed in Escherichia coli or baculovirus-infected insect cells at 400 uM by IMAP assay
Endpoint: inhibition (%)

Consider the following illustrative entries.
Cc1ccc(NC(=O)Nc2cccc(C(F)(F)F)c2)cc1	7
O=C(Nc1ccccc1)Nc1ccccc1	0
CC(C)(C)c1cc(NC(=O)Nc2ccccc2)no1	27
c1cnc2[nH]ccc2c1	36
Nc1[nH]nc2ccccc12	84

[a] Nc1n[nH]c2ncccc12
[b] c1n[nH]c2c1CCCC2
Q: Smaller inhibition value, a vs b ? Record your answer as the label of the chosen record.
Ans: b
(b: 27%, a: 92%)

---

Tested target: Tyrosine-protein kinase JAK3 (Homo sapiens) (UniProt P52333)
Sequence (P52333 whole entry): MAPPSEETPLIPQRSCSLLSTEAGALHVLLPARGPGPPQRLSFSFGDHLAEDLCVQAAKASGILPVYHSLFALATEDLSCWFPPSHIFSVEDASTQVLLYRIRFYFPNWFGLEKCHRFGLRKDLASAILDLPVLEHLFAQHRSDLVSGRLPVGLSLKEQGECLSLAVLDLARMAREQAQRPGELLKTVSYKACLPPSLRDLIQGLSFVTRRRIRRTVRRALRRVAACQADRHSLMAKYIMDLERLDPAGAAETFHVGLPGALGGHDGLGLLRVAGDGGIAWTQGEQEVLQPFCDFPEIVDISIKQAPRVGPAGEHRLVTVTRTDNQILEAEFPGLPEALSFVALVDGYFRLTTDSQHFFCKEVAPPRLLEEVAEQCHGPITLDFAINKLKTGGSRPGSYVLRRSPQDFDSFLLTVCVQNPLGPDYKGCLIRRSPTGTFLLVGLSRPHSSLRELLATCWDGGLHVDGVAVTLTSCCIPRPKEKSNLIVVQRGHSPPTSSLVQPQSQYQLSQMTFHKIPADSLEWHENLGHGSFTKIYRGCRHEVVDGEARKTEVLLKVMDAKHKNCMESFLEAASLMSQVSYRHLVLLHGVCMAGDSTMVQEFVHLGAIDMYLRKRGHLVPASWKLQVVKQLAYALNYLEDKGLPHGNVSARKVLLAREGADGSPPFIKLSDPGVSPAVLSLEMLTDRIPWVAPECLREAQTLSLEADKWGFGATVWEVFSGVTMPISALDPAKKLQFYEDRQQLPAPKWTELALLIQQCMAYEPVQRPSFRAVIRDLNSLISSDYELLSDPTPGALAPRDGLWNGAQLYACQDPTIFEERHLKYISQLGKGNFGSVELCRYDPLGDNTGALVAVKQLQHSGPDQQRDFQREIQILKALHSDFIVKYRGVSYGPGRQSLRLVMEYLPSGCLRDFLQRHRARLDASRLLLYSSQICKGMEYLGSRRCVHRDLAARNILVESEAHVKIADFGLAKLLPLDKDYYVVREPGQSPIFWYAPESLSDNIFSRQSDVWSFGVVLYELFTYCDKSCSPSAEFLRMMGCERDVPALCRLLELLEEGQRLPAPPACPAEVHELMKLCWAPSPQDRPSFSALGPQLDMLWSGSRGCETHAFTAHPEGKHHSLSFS
Assay comment: Inhibition of JAK3 expressed in Escherichia coli or baculovirus-infected insect cells at 667 uM by TR-FRET assay
Endpoint: inhibition (%)

c1ccc2[nH]ncc2c1	29

[P] Nc1ncccc1OCc1ccccc1
[Q] c1ccc(Nc2ncccn2)cc1
Q: Which one would you say has the larger inhibition value: P , or Q ? Reply briefly: the label of your chosen item.
Ans: P

[P] Nc1[nH]nc2ccccc12
[Q] Cc1ccc(C(=O)NC2CC2)cc1F
[R] c1n[nH]c2c1CCCC2
Q: Could you please order the items by inhibition, going from the lowest number to the highest? // format: requested-order list of labels
Ans: Q, R, P

[a] Nc1ccc2ncc(-c3ccccc3)n2n1
[b] O=C(Nc1ccccc1)Nc1cccc(C(F)(F)F)c1
[c] c1ccc(Nc2ccccc2)cc1
Q: Order the entries by their reported inhibition, beginning at the minimum. Write the labels in rank order as requested.
Ans: b, c, a

---

Tested target: Tyrosine-protein kinase SYK (Homo sapiens)
Assay comment: Inhibition of SYK expressed in Escherichia coli or baculovirus-infected insect cells at 667 uM by TR-FRET assay
Endpoint: inhibition (%)

c1ccc(Nc2ccccc2)cc1	8
O=C(Nc1ccccc1)Nc1cccc(C(F)(F)F)c1	0

[a] c1ccc(Nc2ncccn2)cc1
[b] Cc1ccc(NC(=O)Nc2cc(C(C)(C)C)nn2-c2ccccc2)cc1
[c] CC(C)(C)c1cc(NC(=O)Nc2ccccc2)no1
Q: Task for the reader: rank each entry by its inhibition, from the minimum upward. Present the labels in the sequence the task asks for.
Ans: b, c, a
(b: 3%, c: 20%, a: 94%)
